# key: entry, value: inhibition
system.tested: SARS-CoV-2 Main Protease (SARS-CoV-2) (UniProt P0DTD1)
condition.context: 50.0 µM
Number only, in %; omit the unit.

Enquiry: Need inhibition of C=CC(=O)N(c1ccc(N(C)C)c(C)c1)C(C(=O)Nc1ccc(Br)cc1)c1cccnc1 (stereo not given) , thanks.
Return: 3.43

Enquiry: Repeat with Cc1ccnc(C)c1NC(=O)NCc1cccc(N2CCOCC2)c1
Return: -9.74

----------
# key: entry, value: inhibition
system.tested: SARS-CoV-2 Main Protease (SARS-CoV-2)
condition.context: 50.0 µM
Number only, in %; omit the unit.

Enquiry: Need inhibition of N#Cc1ccc(CNC(=O)Cc2c[nH]c3ncccc23)nc1 , thanks.
Return: 0.616

Enquiry: Repeat with OC[C@@]1(F)CCN(c2nc(-c3cccnc3)nc3sc4c(c23)CCC4)C1 (stereo in doubt)
Return: 6.05

Enquiry: Repeat with CC(CCc1ccccc1)N1CCN(C(=O)CCl)CC1 (stereo unspecified)
Return: 60.7

Enquiry: Repeat with COC(=O)c1c(C)nn(-c2ccccc2)c1-c1cc(C)on1
Return: 3.16

Enquiry: Repeat with CC(C)[C@@H](C#N)NS(=O)(=O)c1ccc(CF)cc1 (stereo in doubt)
Return: -14

Enquiry: Repeat with CC(NC(=O)c1ccccc1OC1CCCCC1)c1cnccn1 (stereo unspecified)
Return: 11.2

Others:
Enquiry: Need inhibition of C=CC(=O)N(c1ccc(C(C)(C)C)cc1)C(C(=O)NCCCC(=O)OCC)c1cccnc1 (stereo unspecified) , thanks.
Return: 30.9

Enquiry: Repeat with Cc1ncncc1NC(=O)C(c1cccc(Cl)c1)C(C)C (stereo unspecified)
Return: 20.6

Enquiry: Repeat with Cc1ccc(S(=O)(=O)N2CCN(C(=O)c3cc(=O)[nH]c4ccc(Cl)cc34)CC2)cc1
Return: -0.533

Enquiry: Repeat with C=CC(=O)N(c1ccc(C2(C)CC2)cc1)C(C(=O)Nc1ccc(Cl)cc1)c1cccnc1 (stereo unspecified)
Return: -9.81

Enquiry: Repeat with Cn1nnnc1NC(=O)Cc1csc(C(C)(C)C)n1
Return: 5.13

The measured values listed here are drawn from the COVID Moonshot data (paper PMC11187573).
